# EC50 annotations
TARGET_OR_SYSTEM: T1, human LIV-1 (human, UniProt Q13433 29-755)
T1 construct: whole, on cells; also called H-LIV1
T1 sequence (looked up): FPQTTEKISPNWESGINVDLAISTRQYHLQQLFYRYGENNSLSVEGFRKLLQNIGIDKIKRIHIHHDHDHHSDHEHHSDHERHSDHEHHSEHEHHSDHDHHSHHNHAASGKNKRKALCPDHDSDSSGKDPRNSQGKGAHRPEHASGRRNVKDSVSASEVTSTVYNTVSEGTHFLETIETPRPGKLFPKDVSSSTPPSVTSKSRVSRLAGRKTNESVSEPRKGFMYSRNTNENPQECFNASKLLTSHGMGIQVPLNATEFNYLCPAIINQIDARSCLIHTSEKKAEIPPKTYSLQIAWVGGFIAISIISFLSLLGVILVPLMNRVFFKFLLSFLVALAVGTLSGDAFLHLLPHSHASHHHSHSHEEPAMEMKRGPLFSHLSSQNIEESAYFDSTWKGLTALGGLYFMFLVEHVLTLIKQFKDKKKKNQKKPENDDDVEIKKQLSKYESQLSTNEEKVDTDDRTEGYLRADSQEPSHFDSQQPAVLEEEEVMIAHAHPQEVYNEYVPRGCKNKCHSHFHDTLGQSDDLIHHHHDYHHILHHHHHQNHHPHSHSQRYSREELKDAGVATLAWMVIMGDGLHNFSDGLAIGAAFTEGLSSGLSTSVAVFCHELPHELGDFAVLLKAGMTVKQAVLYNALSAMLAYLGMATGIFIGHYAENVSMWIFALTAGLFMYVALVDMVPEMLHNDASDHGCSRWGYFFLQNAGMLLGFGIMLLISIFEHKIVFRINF
PROTOCOL_NOTES: FACS, BT20/H_LIV-1 High cells
Write down the numeric answer in nM and omit the unit.

Reference set (2 entries):
BINDER	OUTPUT_UNIT	EC50
5D6B10.z7-MMAE (antibody, V domains shown, MMAE drug moiety conjugated; site and chain not stated, Antibody-drug conjugate of 5D6B10.z7; human gamma 1/kappa) VH: QVQLVQSGGGVVQPGRSLRLSCTVSGFSLTTYGIHWVRQSPGKGLEWLGVIWTGGTTDYNAAFISRLTISKDNSKSTVYFQMNSLQAEDTAIYYCARGPSSYWGQGTLVTVSS VL: EIVMTQSPATLSVSPGERATLSCKASQNVDTNVVWYQQKPGQSPRALIYSASYRYSGVPARFSGSGSGTEFTLTISSLQSEDFAVYFCQQYNNYPWTFGQGTKVEIK	nM	0.98
290F10G10.p1.Z2 (antibody, V domains shown, also called 290F10G10.z2; LM-001) VH: EVQLVQSGAEVKKPGASVKVSCKASGYTFTSYWIHWVRQAPGQGLEWMGTIYPGDADTRSTQKFKDRVTMTADTSTSTVYMELSSLRSEDTAVYYCARSLIHDDYDKYYFDYWGQGTTVTVSS VL: DIQMTQSPSSLSASVGDRVTITCKARQDINKYIAWYQQKPGKAPKLLIHYTSILQPGIPSRFSGSGSGRDYTFTISSLQPEDIATYYCLQYDYFFTFGGGTKVEIK	nM	1.06

Attention now turns to another entry.
124H4D11.p2.z4-MMAE (antibody, V domains shown, MMAE drug moiety conjugated; site and chain not stated, Antibody-drug conjugate of 124H4D11.p2.z4; human gamma 1/kappa) VH: QVQLVQSGAEVVKPGASVKVSCKASGFNIKDYYMHWVRQAPGQGLEWIGWIDPENDDTEYDPKFQGRVTMTADTSTSTVYMELSSLRSEDTAVYYCAARYYAFDYWGQGTMVTVSS VL: DVLMTQSPLSLPVTLGQPASISCRSSQSIVHSNANTYLEWYLQRPGQSPRLLIYKVSNRFSGVPDRFSGSGSGTDFTLKISRVEAEDVGVYYCFQGSQVPPTFGQGTKLEIK has a reported EC50 of 0.11
